assayName: AUC (0 to infinity) in dog at 3 mg/kg, iv by LC-MS/MS analysis
Assay type: ADME, organism-based, Canis lupus familiaris
Design: dose 3 mg/kg, route intravenous, time infinity
assayContext: in vivo

entrySmiles: Cc1nnc(C(C)C)n1[C@@H]1C[C@H]2CC[C@@H](C1)N2CC[C@H](NC(=O)C1CCC(F)(F)CC1)c1ccsc1
AUC(0-inf) [ng·h/mL]: 10900
--
entrySmiles: Cc1nnc(C(C)C)n1[C@@H]1C[C@H]2CC[C@@H](C1)N2CC[C@H](NC(=O)C1CCCC1)c1cccs1
AUC(0-inf) [ng·h/mL]: 1100

* * *

Tested on: Human immunodeficiency virus 1
assayName: microbe, parasite or virus in culture
assayContext: Human immunodeficiency virus 1, SF162, PBMC, 168 h
Description: Antiviral activity against CCR5-dependent HIV1 SF162 infected in human PBMC assessed as reduction in virus infection measured after 7 days by luciferase reporter gene assay
pIC50: −log10 of the molar value.
Note to self: values exactly at 7 are Condition met. So pIC50 at or above 7 is Condition met, below is Condition not met.

entrySmiles: Cc1nnc(C(C)C)n1[C@@H]1C[C@H]2CC[C@@H](C1)N2CC[C@H](NC(=O)C1CCC(F)(F)CC1)c1ccsc1
className: Condition met
--
entrySmiles: Cc1nnc(C(C)C)n1[C@@H]1C[C@H]2CC[C@@H](C1)N2CC[C@H](NC(=O)C1CCC(F)(F)CC1)c1cccs1
className: Condition met
--
entrySmiles: Cc1nnc(C(C)C)n1[C@@H]1C[C@H]2CC[C@@H](C1)N2CC[C@H](NC(=O)C1CCCCC1)c1cccs1
className: Condition not met
--
entrySmiles: Cc1ccc([C@H](CCN2[C@@H]3CC[C@H]2C[C@H](n2c(C)nnc2C(C)C)C3)NC(=O)C2CCC(F)(F)CC2)s1
className: Condition met

meta.source: ChEMBL document CHEMBL4229569
